MEASURED_ON: T1, factor H binding protein (fHbp) variant 1.1 (Neisseria meningitidis MC58, fHbp v1.1, strain)
T1 construct: also called fHbp v1.1; fHbp v1; source: E. coli BL21(DE3), purified (Ni-NTA; SEC when necessary)
T1 chain: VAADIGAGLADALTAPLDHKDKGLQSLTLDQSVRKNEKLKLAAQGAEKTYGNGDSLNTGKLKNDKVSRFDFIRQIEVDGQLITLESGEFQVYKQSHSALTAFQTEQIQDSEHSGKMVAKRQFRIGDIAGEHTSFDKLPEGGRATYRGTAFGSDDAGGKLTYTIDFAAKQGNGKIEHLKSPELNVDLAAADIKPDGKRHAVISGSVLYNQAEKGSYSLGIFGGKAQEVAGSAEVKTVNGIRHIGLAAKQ
EXPERIMENT: SPR
STUDY_CONDITIONS: both partners purified
ENDPOINT_LABEL: kon (M⁻¹ s⁻¹)
Write down the numeric answer in M⁻¹ s⁻¹ and omit the unit.

Give the value of kon reported for the following: human anti-fHbp mAb 5F12 (antibody, V domains shown, source: Expi293, transient transfection, purified (protein G Sepharose)) VH: EVQLVESGGDLVKPGGSLRLSCAASGFTFSNYTMNWVRQAPGKGLEWVSSITSSSSFKYYADSVKGRFTISRDNAKNSVFLQMNSLRAEDTAIYYCARRIDSSDQDWFYYYGMDVWGLGTTVTVSS VL: QSVLTQPPSVSAAPGQRVTISCSGSSSNIGDNYISWYQQLPGTAPKLLIYDNDQRPSGTPDRFSASKSGTSATLGVTGLQTGDEADYYCGTWDSSLNAPVFGSGTKVTVL 854000

Give the value of kon reported for the following: human anti-fHbp mAb 3F1 (antibody, V domains shown, source: Expi293, transient transfection, purified (protein G Sepharose)) VH: EVHLVESGGGLVKPGGSLRLSCAASGFTFSSYTMNWVRQAPGKGLEWVSSISSSSGYIYYADSLKGRFTISRDNAKNSLFLQMNSLRAEDTAVYFCARDKVLPAPPGFYGLDVWGPGTTVTVSS VL: QSVVTQPPSVSAAPGQKVTISCSGSSSNIEDNFVSWYQQLPGTAPKLLIYDNNQRPSGIPDRFSGSKSGTSATLGITGLQTGDEADYYCATWDNSLSARVFGGGTKLTVL 885000

Give the value of kon reported for the following: human anti-fHbp mAb 2C8 (antibody, V domains shown, source: Expi293, transient transfection, purified (protein G Sepharose)) VH: QVQLVQSGAEVKKPGSSVKVSCKASGGTVINYPISWVRQVPGQGLEWMGRLVPLFGTPNYGQKFQGRITITADKSTSAAYMELIGLKSEDTAVYYCARGDTAMAPFDYWGHGTLVTVSS VL: QLVLTQPPSVSVAPGKTATITCGGNNVGGKTVHWYQQKPGQAPVLVMSYDSDRPSGIPERFSGSNSGNTATLTISRVEAEDEADYYCQVWHGNDDHWVFGGGTKLTVL 1.16e+06

Give the value of kon reported for the following: human anti-fHbp mAb 1E10 (antibody, V domains shown, source: Expi293, transient transfection, purified (protein G Sepharose)) VH: QVQLVESGGDLVKPGGSLRLSCVASGFTFSSYTMNWVRQAPGKGLEWVSSITSSSSFTYYADSVKGRFIISRDNAKNSLSLQMNNLRVEDTATYYCARRKDSSDYDWYYYYGMDVWGLGTTVTVSS VL: QSVVTQPPSVSAAPGQKVTISCSGSSSNIGDNYMSWYQQIPGTAPKLLIFDNDQRPSGIPDRFSASKSGTSATLDITGFQTGDEADYYCGTWDSGLSAPVFGGGTKLTVL 427000

Give the value of kon reported for the following: human anti-fHbp mAb 3B7 (antibody, V domains shown, source: Expi293, transient transfection, purified (protein G Sepharose)) VH: EVQLVQSGAEVKKPGSSVKVSCKASGDTFSNYPISWVRQAPGQGLEWMGGIIPIFGTANYAQKFQGRVTITADESTSTPYMELSSLRSEDTAVYYCARGDTAMAPFDYWGQGTLVTVSS VL: SYVLTQPPSVSVAPGKTARITCGGNSIGSKSVHWYQQKPGQAPVLVIYYDSDRPSGVPERISGSNSGNTATLTISRVEAGDEADYYCQVWDSSSDSWVFGGGTKLTVL 1.71e+06

Give the value of kon reported for the following: human anti-fHbp mAb 4B10 (antibody, V domains shown, source: Expi293, transient transfection, purified (protein G Sepharose)) VH: EVQLVESGGGLVKPGGSLRLSCAASGFAFSTYSLHWVRQAPGKGLEWVSAITSSGSFLYYADSLKGRFTVSRDNAKNSLFLQMNSLRAGDTAVYYCARALQVEDGFPMFSGLDVWGQGTTVTVSS VL: QTVVTQPPSVSEAPRQRVAISCSGSSSNIGDNSVSWYQQLPGKAPKLLIYDDDLLPSGVSDRFSASKSGTSASLAISGLQSEDEAEYYCAAWDDSLKGVVFGGGTKLTVL 7.7e+06

Give the value of kon reported for the following: human anti-fHbp mAb 1D1 (antibody, V domains shown, source: Expi293, transient transfection, purified (protein G Sepharose)) VH: QVQLVGSGGGLVKPGGSLRLSCAASGFTFSSYTMNWVRQAPGKGLEWVSSISSSSGYIYYADSLKGRFTISRDDAKNSLFLQMNSLRAEDTAVYFCARDKVLPAPPGFYGLDVWGPGTTVTVSS VL: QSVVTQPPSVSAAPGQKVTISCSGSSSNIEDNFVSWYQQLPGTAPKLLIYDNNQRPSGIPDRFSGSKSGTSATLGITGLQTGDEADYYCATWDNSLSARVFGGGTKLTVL 1.81e+06

Give the value of kon reported for the following: human anti-fHbp mAb 4B3 (antibody, V domains shown, source: Expi293, transient transfection, purified (protein G Sepharose)) VH: QVQLVQSGGGLVKPGGSLRLSCAASGFPFSSYYMSWIRQAPGKGLEWVSDINNSGNVKEYADFVKGRLTISRDNVKNSMYLHMNSLRVEDTAVYYCARNRGRFDVWGQGTLVTVSA VL: EIVMTQSPGTLSLSPGETATLSCRASQMISSPFLAWYQQRRGQAPRLLIYGASTRATDTPDRFRGSGSGTDFILTISRLEPEDFAVYYCQYYDDSPFTFGQGTKLEIK 661000

Give the value of kon reported for the following: human anti-fHbp mAb 4F9 (antibody, V domains shown, source: Expi293, transient transfection, purified (protein G Sepharose)) VH: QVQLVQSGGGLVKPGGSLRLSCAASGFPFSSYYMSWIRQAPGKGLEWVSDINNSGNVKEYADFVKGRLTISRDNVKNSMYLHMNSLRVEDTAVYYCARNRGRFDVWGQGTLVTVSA VL: EIVMTQSPGTLSLSPGETATLSCRASQMISSPFLAWYQQRRGQAPRLLIYGASTRATDTPDRFRGSGSGTDFILTISRLEPEDFAVYYCQHYDDSPFTFGQGTKLEIK 3.29e+07

Give the value of kon reported for the following: human anti-fHbp mAb 3G7 (antibody, V domains shown, source: Expi293, transient transfection, purified (protein G Sepharose)) VH: EVQLLQSGGGLVKPGGSLRLSCAASGFPFSSYYMSWIRQAPGKGLEWVSDINNSGNVKEYADFVKGRLTISRDNVKNSMYLHMNSLRVEDTAVYYCARNRGRFDVWGQGTLVTVSA VL: EIVLTQSPGTLSLSPGETATLSCRASQMISSPFLAWYQQRRGQAPRLLIYGASTRATDTPDRFRGSGSGTDFILTISRLEPEDFAVYYCQYYDDSPFTFGQGTKLEIK 903000
